Test: TEAD-YAP interaction inhibition, primary screen, TEAD-YAP interaction inhibitor project, luminescence, HEK-TIYL cells (AID 1259422);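 note: 0% = median of test compound wells and 100% = reference inhibitor wells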
Conditions: TEAD-Gal4/YAP UAS-luciferase luminescence, at 9.12 µM, active compounds read high
About 9,300 (1.5%) of roughly 640,000 compounds were called active. The entries come from a sample that favours actives as a whole.
Consider the following molecules and their measured inhibition readings.
parameter measured: inhibition (%)

                                    molecule  parameter_measured  readout_unit  observed_value
 0  COc1ccccc1NC1=C/C(=N/S(=O)(=O)c2ccc(F)cc2)c2ccccc2C1=O          inhibition             %           -21.4
 1               O=C(Nc1cc(F)cc(F)c1)c1cccs1          inhibition             %           -5.52
 2  COc1ccc(CNC(=O)CCc2c(C)nc3cc(-c4ccccc4)nn3c2C)cc1          inhibition             %            2.84
 3  Brc1ccc(N=c2oc3ccccc3cc2-c2nc3ccccc3[nH]2)cc1          inhibition             %           -86.1
 4           O=C(CNC1CCCC1)NCc1ccc2c(c1)OCO2          inhibition             %           -2.55
 5  c1ccc2oc(=Nc3cccc4ccccc34)c(-c3nc4ccccc4[nH]3)cc2c1          inhibition             %            41.4
 6  COCCn1nnnc1CN(Cc1ccco1)CC1CCCO1 (stereo not given)          inhibition             %           -5.83
 7  COc1ccc(C2CC(=O)C3=C(C2)Nc2ccccc2NC3c2cc3c(cc2[N+](=O)[O-])OCO3)cc1 (stereo not given)          inhibition             %           -38.4
 8              Cc1ccccc1CCNCc1ccc(C(=O)O)s1          inhibition             %           -4.88
 9         Cc1ccc(-c2csc(Nc3ccccc3)n2)c(C)c1          inhibition             %             -65
10   Cc1nc(-c2ccc(NC(=O)c3cccc(Br)c3)cc2)cs1          inhibition             %           -71.4
11          C=CCn1c(C)cc(C2=NNC(=NCC)SC2)c1C          inhibition             %            99.6
12          CCC(=O)Nc1ccc(C2=NNC(=NC)SC2)cc1          inhibition             %           -4.44
13  COc1cc(C2CC(=O)Nc3cc4c(cc32)OCO4)ccc1O (stereo not given)          inhibition             %           -0.17
14  COc1ccccc1-c1cc2nc(C)c(CCC(=O)Nc3ccccc3C(N)=O)c(C)n2n1          inhibition             %            12.4
15  CS(=O)(=O)c1ccc2nc(NC(=O)CSc3ccccc3)sc2c1          inhibition             %            7.95
16  COc1ccccc1C1C2=C(COC2=O)Nc2c1c(=O)n(C)c(=O)n2C (stereo not given)          inhibition             %            6.62
17  CCn1c(=O)c2ccccc2n2c(SCC(=O)N(C)C3CCCCC3)nnc12          inhibition             %           -7.16
18  Cc1ccccc1-n1c(=S)sc2c(=O)n(-c3ccccc3)c(SCc3cccc([N+](=O)[O-])c3)nc21          inhibition             %           -6.72
19  N#Cc1ccccc1N=c1oc2ccccc2cc1-c1nc2ccccc2[nH]1          inhibition             %           -44.7
20  CCN(CC)S(=O)(=O)c1ccc2nc(NC(=O)CC(C)C)sc2c1          inhibition             %            42.2
21  COc1ccc(S(=O)(=O)/N=C2/C=C(Nc3ccc(O)cc3)C(=O)c3ccccc32)cc1          inhibition             %            99.3
22  CC1CCCC(NC(=O)CCCn2nnc3ccccc3c2=O)C1C (stereo not given)          inhibition             %            -2.4
23        Cc1cc(C)n2cc(CN3CCc4ccccc4C3)nc2n1          inhibition             %           -0.09
24              Ic1ccc2ncnc(NCCc3ccccc3)c2c1          inhibition             %            32.8
25  COCCOC(=O)C1=C(C)NC2=C(C(=O)CC(c3ccccc3)C2)C1c1cc(OC)ccc1OC (stereo not given)          inhibition             %            8.28
26            Cc1cccc2nc(NC(=O)c3ccnn3C)sc12          inhibition             %           -7.31
27        Cc1ccc(Nc2nc(-c3ccc(Cl)cc3)cs2)cc1          inhibition             %           -86.7
28  CC1=C(C(=O)OCCOc2ccccc2)C(c2cccc(Cl)c2Cl)C2=C(CC(c3ccccc3)CC2=O)N1 (stereo not given)          inhibition             %            5.89
29             Cc1ccc(Nc2nc(-c3cccs3)cs2)cc1          inhibition             %            64.2
30       CCOc1ccc(/C=N/Nc2ncnc3nc[nH]c23)cc1          inhibition             %            81.1
31  Cc1ccc(CN2C(=O)CCC2CCNCc2cc3c(cc2Cl)OCO3)cc1F (stereo not given)          inhibition             %           -1.93
32  CCC(OC(=O)C(CCSC)NC(=O)c1ccccc1)C(=O)Nc1ccc(S(N)(=O)=O)cc1 (stereo not given)          inhibition             %           -0.22
33  O=C1C(Nc2ccc(O)cc2)=C(n2nnc3ccccc32)C(=O)c2ccccc21          inhibition             %            27.1
34  Cn1c2c(c(=O)n(C)c1=O)C(c1ccc(F)cc1)C1=C(COC1=O)N2 (stereo not given)          inhibition             %            13.2
35             O=C(Nc1cc(Cl)cc(Cl)c1)c1cccs1          inhibition             %            -3.5
36    CCCC(=O)Nc1nc2ccc(S(=O)(=O)N(C)C)cc2s1          inhibition             %           -15.2
37              CC(=O)Nc1cccc(-c2csc(C)n2)c1          inhibition             %           -2.27
38  O=c1c(C=Nc2ccc(Cl)cc2)c(Nc2ccccc2)nc2ccccn12          inhibition             %           -17.1
39  COc1ccc(CCNC(=O)c2cc(-c3ccccc3OC)n[nH]2)cc1OC          inhibition             %            2.42
40        Cc1nc(-c2ccc(NC(=O)c3cccs3)cc2)cs1          inhibition             %            48.2
41  COc1c(C(=O)Nc2ccc(NC(C)=O)cc2)ccc2ccccc12          inhibition             %           -28.1
42                C=CCn1c(C)cc(C(=O)CC#N)c1C          inhibition             %           -18.5
43  O=C(Nc1ccc(C23CC4CC(CC(C4)C2)C3)cc1)c1cccs1          inhibition             %            85.4
44      COc1cccc(/C=N/Nc2nc(=O)[nH]nc2C)c1OC          inhibition             %           -7.82
